Biological target: RAF proto-oncogene serine/threonine-protein kinase (Homo sapiens, UniProt P04049)
Sequence (P04049 whole entry): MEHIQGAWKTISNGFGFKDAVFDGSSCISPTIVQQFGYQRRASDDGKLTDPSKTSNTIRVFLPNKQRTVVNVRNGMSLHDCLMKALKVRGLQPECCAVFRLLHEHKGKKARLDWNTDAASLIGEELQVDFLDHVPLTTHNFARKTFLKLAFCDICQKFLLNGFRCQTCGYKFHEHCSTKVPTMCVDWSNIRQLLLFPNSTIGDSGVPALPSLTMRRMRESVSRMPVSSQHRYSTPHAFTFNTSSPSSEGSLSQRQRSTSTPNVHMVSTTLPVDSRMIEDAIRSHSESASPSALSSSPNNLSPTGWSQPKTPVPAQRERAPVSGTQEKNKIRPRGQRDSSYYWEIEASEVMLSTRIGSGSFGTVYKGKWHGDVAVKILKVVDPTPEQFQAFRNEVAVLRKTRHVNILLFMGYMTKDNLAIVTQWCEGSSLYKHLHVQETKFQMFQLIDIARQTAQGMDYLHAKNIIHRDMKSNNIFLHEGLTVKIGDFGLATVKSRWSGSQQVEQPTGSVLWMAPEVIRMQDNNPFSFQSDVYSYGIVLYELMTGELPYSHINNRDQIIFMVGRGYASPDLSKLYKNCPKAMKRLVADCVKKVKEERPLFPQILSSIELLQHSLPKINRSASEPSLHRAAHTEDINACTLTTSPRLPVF
Test: Inhibition of C-Raf assessed as reduction in [33P]ATP incorporation into biotinylated substrate peptide after 3 hrs by flash plate assay
measured.quantity: pIC50
// pIC50 here means minus log10 of the molar concentration (mol/L)

// below: answered compounds
- compound: "CNC(=O)c1cc(Oc2ccc3c(c2)CC(C(=O)Nc2ccc(CN)c(C(F)(F)F)c2)CC3)ccn1 (centres undefined)"
  target: "RAF proto-oncogene serine/threonine-protein kinase (Homo sapiens, UniProt P04049)"
  measured.quantity: "pIC50"
  value.reported: 7.80
- compound: "CNC(=O)c1cc(Oc2ccc3c(c2)CC(C(=O)Nc2ccc(Cl)c(C(F)(F)F)c2)CC3)ccn1 (racemic)"
  target: "RAF proto-oncogene serine/threonine-protein kinase (Homo sapiens, UniProt P04049)"
  measured.quantity: "pIC50"
  value.reported: 7.55
- compound: "CC(C)NCc1cc(NC(=O)C2CCc3ccc(Oc4ccnc(NC(=O)C5CC5)c4)cc3C2)cc(C(F)(F)F)c1 (centres undefined)"
  target: "RAF proto-oncogene serine/threonine-protein kinase (Homo sapiens, UniProt P04049)"
  measured.quantity: "pIC50"
  value.reported: 8.34

Input: State the measured pIC50 (RAF proto-oncogene serine/threonine-protein kinase (Homo sapiens, UniProt P04049)) of CN(C)Cc1cc(NC(=O)[C@H]2CCc3ccc(Oc4ccnc(NC(=O)C5CC5)c4)cc3C2)cc(C(F)(F)F)c1
Output: 8.48

====

Examples of molecules with documented AUC(0-t) at 24 h follow.
Assay: AUC (0 to 24 hrs) in mouse at 10 mg, po in 10% HPbCD vehicle
Type: ADME, organism-based
Design: time < 24 hr, dose 10 mg, route oral
Conditions: plasma
Please format your answer as a value with the unit trailing.

// below: answered molecules
- query.smiles: "CNCc1cc(C(=O)N[C@@H]2CCc3ccc(Oc4ccnc5c4CCC(=O)N5)cc3C2)cc(C(F)(F)F)c1"
  value.reported: "12.4 µM·h"
- query.smiles: "CN(C)Cc1cc(C(=O)N[C@@H]2CCc3ccc(Oc4ccnc(NC(=O)C5CC5)c4)cc3C2)cc(C(F)(F)F)c1"
  value.reported: "0.51 µM·h"
- query.smiles: "CC(C)(N)c1cc(C(=O)N[C@@H]2CCc3ccc(Oc4ccnc5c4CCC(=O)N5)cc3C2)cc(C(F)(F)F)c1"
  value.reported: "35.9 µM·h"

Input: Quick one: give measured AUC(0-t) at 24 h for CN(C)Cc1cc(C(=O)N[C@@H]2CCc3ccc(Oc4ccnc5c4CCC(=O)N5)cc3C2)cc(C(F)(F)F)c1
Output: 98.6 µM·h

Input: Quick one: give measured AUC(0-t) at 24 h for CC(C)NCc1cc(NC(=O)[C@H]2CCc3ccc(Oc4ccnc5c4CCC(=O)N5)cc3C2)cc(C(F)(F)F)c1
Output: 20.7 µM·h

====

Test system: Mus musculus
Assay: Volume of distribution at steady state in mouse at 1 mg/kg, iv or 10 mg, po
Assay type: ADME, organism-based
Design: dose 1 mg/kg, route oral
Details: in vivo
condition met means recorded Vdss is 4 L/kg or above; condition not met means it is below 4 L/kg.

- compound: "CNCc1cc(C(=O)N[C@@H]2CCc3ccc(Oc4ccnc5c4CCC(=O)N5)cc3C2)cc(C(F)(F)F)c1"
  target: "Mus musculus"
  class.label: "condition not met"

Input: Please check the record CN(C)Cc1cc(C(=O)N[C@@H]2CCc3ccc(Oc4ccnc(NC(=O)C5CC5)c4)cc3C2)cc(C(F)(F)F)c1 and state if its Vdss is at or above 4 L/kg.
Output: condition not met

Input: Please check the record CN(C)Cc1cc(NC(=O)[C@H]2CCc3ccc(Oc4ccnc(NC(=O)C5CC5)c4)cc3C2)cc(C(F)(F)F)c1 and state if its Vdss is at or above 4 L/kg.
Output: condition met

Input: Please check the record NCc1cc(NC(=O)C2CCc3ccc(Oc4ccnc(NC(=O)C5CC5)c4)cc3C2)cc(C(F)(F)F)c1 (stereo unspecified) and state if its Vdss is at or above 4 L/kg.
Output: condition met

Input: Please check the record CC(C)NCc1cc(NC(=O)[C@H]2CCc3ccc(Oc4ccnc5c4CCC(=O)N5)cc3C2)cc(C(F)(F)F)c1 and state if its Vdss is at or above 4 L/kg.
Output: condition not met

====

Experiment: Oral bioavailability in mouse at 10 mg
Assay type: ADME, organism-based
Conditions: in vivo
measured.quantity: bioavailability (%)
Supply the numeric figure in %, leaving out any unit text.

- molecule: "CC(C)(N)c1cc(C(=O)N[C@@H]2CCc3ccc(Oc4ccnc5c4CCC(=O)N5)cc3C2)cc(C(F)(F)F)c1"
  unit.abbrev: "%"
  value.reported: 85

Input: Quick one: give measured bioavailability for NCc1cc(NC(=O)C2CCc3ccc(Oc4ccnc(NC(=O)C5CC5)c4)cc3C2)cc(C(F)(F)F)c1 (stereo not drawn)
Output: 1.9

Input: Quick one: give measured bioavailability for CN(C)Cc1cc(C(=O)N[C@@H]2CCc3ccc(Oc4ccnc5c4CCC(=O)N5)cc3C2)cc(C(F)(F)F)c1
Output: 100
